B1: COUP transcription factor 1, residues 83 to 159; numbered along this chain, P10589 (parent)
chain: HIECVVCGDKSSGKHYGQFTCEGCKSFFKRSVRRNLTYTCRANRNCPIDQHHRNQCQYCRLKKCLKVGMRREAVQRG

- Variants of: B1
- method: abundance fitness (aPCA) (normalised: wild type 0, dead -1); higher = more abundant; growth selection in yeast, the domain comes from the species named
- stated.conditions: Homo sapiens
Each entry falls in a class defined on abundance fitness; the bands are lo: < -0.3; med: ≥ -0.3 and < -0.03; hi: ≥ -0.03

Q18C :: hi
Q50R :: med
N54L :: hi
F27R :: lo
T39C :: med
K63Y :: med
Q18T :: med
R71A :: hi
N54Y :: med
K29E :: hi
F27H :: lo
T39A :: hi
C59F :: lo
G23V :: lo
K63A :: med
S31G :: lo
E22P :: med
A73G :: hi
C64I :: lo
V74A :: hi
H52R :: med
Q55A :: hi
